Sourced from the CheMixHub drug solubility set

method description: xn = mol fraction of the nth substance listed, in the solute-free solvent
measurement setup: 318.15 K; x2 = 0.06974
assay readout: solubility (g/100 g solution)
Numbers only.

Below, 3 compounds whose answers are already recorded.
- compound: "Nc1cccc(S(=O)(=O)c2cccc(N)c2)c1 + CC(C)O + O"
  solubility (g/100 g solution): 0.698
- compound: "c1ccc2[nH]c(-c3cscn3)nc2c1 + CCCO + O"
  solubility (g/100 g solution): 0.0545
- compound: "Nc1nccnc1Cl + CC(C)O + O"
  solubility (g/100 g solution): 0.356

Here are 3 compounds. What values of solubility (g/100 g solution) were reported for them?
1. c1ccc2[nH]c(-c3cscn3)nc2c1 + CC(C)O + O
2. CN1CCN(C2=Nc3cc(Cl)ccc3Nc3ccccc32)CC1 + CC(C)O + O
3. Cc1[nH]c(=O)c(C#N)cc1-c1ccncc1 + CC(C)O + O

1. 0.0311
2. 0.137
3. 0.00537
